- Tested on: Bacillus subtilis
- assay.summary: In vitro minimum inhibitory concentration against Bacillus subtilis upon incubation at 37 degree C for 16 to 24 h
- Format: functional
Reported MIC values for a set of molecules
test.readout: MIC

[
  {
    "cpd.smiles": "CCc1cc(Nc2cc(=O)n(CCOC)c(=O)[nH]2)ccc1C",
    "obs.value": "< 1.25 µg/mL"
  },
  {
    "cpd.smiles": "CCc1cc(Nc2cc(=O)n(CCCCCO)c(=O)[nH]2)ccc1C",
    "obs.value": "< 1.25 µg/mL"
  },
  {
    "cpd.smiles": "CCc1cc(Nc2cc(=O)n(CCO)c(=O)[nH]2)ccc1C",
    "obs.value": "< 1.25 µg/mL"
  },
  {
    "cpd.smiles": "CCc1cc(Nc2cc(=O)n(CCCCN(CCO)CCO)c(=O)[nH]2)ccc1C",
    "obs.value": "> 20 µg/mL"
  },
  {
    "cpd.smiles": "CCc1cc(Nc2cc(=O)n(CCCCNCCO)c(=O)[nH]2)ccc1C",
    "obs.value": "> 20 µg/mL"
  }
]
